Recorded Metric: IC50 (µM)
Field: numeric (µM). Do not append units.

Task: Item: CC(=O)c1cc([N+](=O)[O-])c(Sc2ccc(F)cc2F)s1 Test system: USP10 (Homo sapiens, UniProt Q14694) Read-out: IC50 Value: ?
Result: 6
